system: lambsquarters (Chenopodium album, CHEAL); test: Post-emerge test, greenhouse herbicide activity screening; format: in vivo; conditions: Chenopodium album, post-emergence, 336 h; post-emerge, 63 g ai/ha, phytotoxicity rating 0-100 at 14 days after application; read-out: Post-emerge Herbicidal Activity CHEAL
pest or weed control at 63 g/ha by entry:
Kindly provide the numeric value in % only, without the unit symbol.

Example entries and their recorded answers appear below.
Query: Field: pest or weed control at 63 g/ha (lambsquarters (Chenopodium album, CHEAL)). Entry: Cc1nn(-c2c(F)cc(Cl)cc2NC(=O)c2ccc3ccccc3c2)c(=O)n1C(F)F [Compound 6-24]
Reply: 30

Query: # repeat for Nc1c(O)c(Cl)cc(F)c1N1C(=O)C2=C(CCCC2)C1=O [Compound 8-2]
Reply: 40

Query: Would you kindly repeat that for COc1c(Cl)cc(F)c(N2C(=O)c3ccccc3C2=O)c1NC(=O)c1ccc2ccccc2c1 [Compound 13-3] ?
Reply: 100

Let's switch to this compound now.
Query: Give recorded pest or weed control at 63 g/ha with lambsquarters (Chenopodium album, CHEAL) for the following compound: COc1c(Cl)cc(Cl)c(-n2nc(C)n(C(F)F)c2=O)c1NC(=O)c1ccc2ccccc2c1 [Compound 6-17]
Reply: 90
